molecules and their reported AUC(0-t)
- Procedure Details: In vivo pharmacokinetic experiment in CD-1 mice
- Stated Conditions: mouse, plasma; CD-1 female mice, oral administration (10 mg/kg)
Numbers only here, please. The scale is ng·h/mL.

| Structure Smiles String | Readout Label | Measured |
| --- | --- | --- |
| COc1cc(N2CC3(CCN(C)CC3)C2)c(F)cc1Nc1ncc(Cl)c(Oc2cccc3c2C(=O)N(C)C32CC2)n1 | AUC(0-t) | 12400 |
| COc1cc(C(=O)NC2CCN(C)CC2)c(F)cc1Nc1ncc(Cl)c(Oc2cccc3c2C(=O)N(C)C32CC2)n1 | AUC(0-t) | 7850 |
| COc1cc(C(=O)NC2CCN(C)CC2)ccc1Nc1ncc(C(F)(F)F)c(Oc2cccc3c2C(=O)N(C)C32CC2)n1 | AUC(0-t) | 190 |
| COc1cc(N2CCN(C)CC2)ccc1Nc1ncc(C(F)(F)F)c(Oc2cccc3c2C(=O)N(C)C32CC2)n1 | AUC(0-t) | 2890 |
| COc1cc(C(=O)NC2CCN(C)CC2)c(F)cc1Nc1ncc(C(F)(F)F)c(Oc2cccc3c2C(=O)N(C)C32CC2)n1 | AUC(0-t) | 2090 |
| COc1cc(N2CC3(CCN(C)CC3)C2)ccc1Nc1ncc(Cl)c(Oc2cccc3c2C(=O)N(C)C32CC2)n1 | AUC(0-t) | 8910 |
| COc1cc(N2CC3(CCN(C)CC3)C2)c(F)cc1Nc1ncc(C(F)(F)F)c(Oc2cccc3c2C(=O)N(C)C32CC2)n1 | AUC(0-t) | 6120 |

Consider the record given below.
The molecule listed as `COc1cc(N2CC3(CCN(C)CC3)C2)ccc1Nc1ncc(Br)c(Oc2cccc3c2C(=O)N(C)C32CC2)n1` shows AUC(0-t) equal to 7450

* * *

- Procedure Details: In vivo pharmacokinetic experiment in CD-1 mice
- Stated Conditions: mouse, plasma, intravenous; CD-1 female mice, injection (1 mg/kg)
Readout Label: clearance (mL/min/kg)
Write the answer as a number in mL/min/kg, unit excluded.

clearance for `COc1cc(C(=O)NC2CCN(C)CC2)ccc1Nc1ncc(C(F)(F)F)c(Oc2cccc3c2C(=O)N(C)C32CC2)n1` is 67.1

* * *

Property: Cmax; scope: individual molecules
- Procedure Details: In vivo pharmacokinetic experiment in CD-1 mice
- Stated Conditions: mouse, plasma; CD-1 female mice, oral administration (10 mg/kg)
Please give the number followed by its unit.

Check out these entries, answers already filled in.
| Molecule | Cmax |
| --- | --- |
| COc1cc(C(=O)NC2CCN(C)CC2)c(F)cc1Nc1ncc(C(F)(F)F)c(Oc2cccc3c2C(=O)N(C)C32CC2)n1 [Compound 4] | 361 ng/mL |
| COc1cc(N2CCN(C)CC2)ccc1Nc1ncc(C(F)(F)F)c(Oc2cccc3c2C(=O)N(C)C32CC2)n1 [Compound 73] | 624 ng/mL |
| COc1cc(N2CC3(CCN(C)CC3)C2)ccc1Nc1ncc(Br)c(Oc2cccc3c2C(=O)N(C)C32CC2)n1 [Compound 177] | 815 ng/mL |

Quick note, Cmax for COc1cc(N2CC3(CCN(C)CC3)C2)c(F)cc1Nc1ncc(Cl)c(Oc2cccc3c2C(=O)N(C)C32CC2)n1 [Compound 137] landed at 810 ng/mL

* * *

- Procedure Details: In vivo pharmacokinetic experiment in CD-1 mice
- Stated Conditions: mouse, plasma; CD-1 female mice, oral administration (10 mg/kg)
Tick Met if bioavailability is 60% or greater. Tick Not met if bioavailability is less than 60%.

Examples from the recorded data:
| Compound | Group |
| --- | --- |
| COc1cc(N2CC3(CCN(C)CC3)C2)c(F)cc1Nc1ncc(Cl)c(Oc2cccc3c2C(=O)N(C)C32CC2)n1 [Compound 137] | Met |
| COc1cc(C(=O)NC2CCN(C)CC2)ccc1Nc1ncc(C(F)(F)F)c(Oc2cccc3c2C(=O)N(C)C32CC2)n1 [Compound 3] | Not met |
| COc1cc(C(=O)NC2CCN(C)CC2)c(F)cc1Nc1ncc(Cl)c(Oc2cccc3c2C(=O)N(C)C32CC2)n1 [Compound 117] | Met |
| COc1cc(C(=O)NC2CCN(C)CC2)c(F)cc1Nc1ncc(C(F)(F)F)c(Oc2cccc3c2C(=O)N(C)C32CC2)n1 [Compound 4] | Not met |
| COc1cc(N2CC3(CCN(C)CC3)C2)ccc1Nc1ncc(Br)c(Oc2cccc3c2C(=O)N(C)C32CC2)n1 [Compound 177] | Met |

Qu. Please check the record COc1cc(N2CC3(CCN(C)CC3)C2)ccc1Nc1ncc(Cl)c(Oc2cccc3c2C(=O)N(C)C32CC2)n1 [Compound 136] and state if its bioavailability is at or above 60%.
Ans. Met

Qu. Please indicate if the recorded bioavailability for COc1cc(N2CC3(CCN(C)CC3)C2)c(F)cc1Nc1ncc(C(F)(F)F)c(Oc2cccc3c2C(=O)N(C)C32CC2)n1 [Compound 120] meets or exceeds 60%.
Ans. Met
